From: the RNAGym collection of RNA variant scans (doi:10.1126/science.aae0568)

Parameter: yeast fitness. Scope: all listed entries.
B1: tRNA (parent)
chain: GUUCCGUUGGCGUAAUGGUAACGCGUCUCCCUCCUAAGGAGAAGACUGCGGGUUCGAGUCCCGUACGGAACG

Variants of: B1
Assay: yeast fitness relative to wild type (ratio to wild type); higher = fitter; tRNA-Arg(CCU), competitive growth, 37 C, YPD
This sample holds only a part of the variants without activity.

SEQ TEXT	yeast fitness
GUUCCGUUGGCGUAAUGGUAACGCGUCUCCCUACUUAGGAGAAGACUGCGGGUUCGAGUCCCAUACGGAACG [C33A A36U G63A]	≤ 0.5
GUUCCGUUGGCGUAAUGGUAACGAGUCUCCCUCAUAGGGAGAAGACUGCGGGUUCGGGUCCCGUGCGGAACG [C24A C34A A37G A57G A65G]	0.544
GUUUCGUGGGCGUAAUGGAACCGCGUCUCCCUCCUAAGGAGAAGACUGCGGGUUCGAGUCCCGUACGGAUCG [C4U U8G U19A A21C A70U]	≤ 0.5
GUUCAGUUGGCGUAAUGGUAACGCGUCUCCCUCCUAAGGAAAAGACUGCGGGUUCGGGUCCCGUACGGAACG [C5A G41A A57G]	0.545
GUUCCGUUGGAGUAAUGGUAACGCGUCUCCCUCCUAAGGAGAAGACUGCGGGUUCGAGUCCCGUACGAAACG [C11A G68A]	0.583
GUUCCGUUGGCGUAAUGGUAACGCGUCUCCCUCCUAAGGAGAAGACUGCGGGUUCGAGGCCUGUACGGAACG [U59G C62U]	0.875
GCUCCGUUGGUGUAAUGGUACCGCGCCUCCCUCCUAAGGAGAAGACUGUGGGUUCGUGUCCCGUACGGAACG [U2C C11U A21C U26C C49U A57U]	≤ 0.5
GUUCCGUUGGCGUAUUGGUAGCGCGUCUUCCUCCUAAGGAGAACACUGCGGGUUACAGUCCCGUACGGAACG [A15U A21G C29U G44C C55A G56C]	≤ 0.5
GUUCCGUUGGGGUAAUGGUAACGCGUUUCCCUCUUAAGGAGAAGACUGCGGGUUCGAGUCCCGUACGGAACG [C11G C27U C34U]	≤ 0.5
GUUCCGUUGGCAUAAUGGUAACGCGUCUCCCCCCUAAGGGGAAGACUGCGGGUUCGAGUCCCGUACGGAACG [G12A U32C A40G]	≤ 0.5
GUUCCGUUGGCGUAAUGGUAACGCGUCUCCCUCCUAAGGAGAAGACUGCCGGUUCGAGUCCGGUAUGGAACG [G50C C62G C66U]	0.968
GUUCCGUUGGCGUAAUGGUAGCGCGUAUCCCUCCUUAGGGGAAGACUGCGGCUUCGAGUCCCGUACAGAACG [A21G C27A A36U A40G G52C G67A]	≤ 0.5
GUUCCGUUGGCGUAAUGGGAACGCGUCUCUCUCCUAAGGAGAAGACUGCGGGUUUGGGUCCCGUACGGAACG [U19G C30U C55U A57G]	≤ 0.5
GUUCCGUUGGCGUAAUGGUAACGCGUCUCCCUGCUAAGGAGAAGACUGCGGGAUCGAGUUCCGUACGGAACG [C33G U53A C60U]	0.637
GUUCCGUUGGCGUAAUGGUAACGCGUCUCCCUCCUAAAGUGAAGACUGCGGGUUCGAGUCCCGUACGGAACG [G38A A40U]	0.747
GUUCCGUUGGCGUAAUGGUAACGCAUCUCCCUCCUAAGGAGAAGGUUGCGGGUUCGAGUCCCGUACGGAACG [G25A A45G C46U]	0.731
GUUCCGUUGGCGUAAUGGUAUCGCAUCUCCCUCCUAAGGAGAAGACUGCGGGUUCUAGUCCCGUACGGAACG [A21U G25A G56U]	≤ 0.5
GUUCCGUUGGCGUAAUGGUAACGUGUCUCCCUCCUAAGGAGAAGGGUGCGGGUUGGAGUCCCGUACGGCACG [C24U A45G C46G C55G A69C]	≤ 0.5
GUUCCGUUGGCGUAAUGGUAACGCGUCUCCCUCCUAAGGAGAAGACAGCGGGUUCGAGUCCUGUACGGAACG [U47A C62U]	0.842
GUUCCGUUGGCGUAAUGGUAACGCGUCUCCCUCGUAAGGAGCAGACUGCGCGUUCGAGUCCCGUACGGAACG [C34G A42C G51C]	0.525
GUUCCGUUGGCGUAAUGGUAACGCGUCUACCUCUUUAGGAGAAGACUGCGGGUUCGAGUCCCGUACGGAACG [C29A C34U A36U]	0.568
GUUCCGUUGGCGUAAUGGUAACGCGUCUCCCUCCGAAGGAGAAGACUGCGGGUUCGAGUCCUGUACGGAACG [U35G C62U]	0.7
